Listed molecules paired with reported inhibition
Measured On: Voltage-dependent N-type calcium channel subunit alpha-1B (Homo sapiens) (UniProt Q00975)
Sequence (Q00975 whole entry, looked up): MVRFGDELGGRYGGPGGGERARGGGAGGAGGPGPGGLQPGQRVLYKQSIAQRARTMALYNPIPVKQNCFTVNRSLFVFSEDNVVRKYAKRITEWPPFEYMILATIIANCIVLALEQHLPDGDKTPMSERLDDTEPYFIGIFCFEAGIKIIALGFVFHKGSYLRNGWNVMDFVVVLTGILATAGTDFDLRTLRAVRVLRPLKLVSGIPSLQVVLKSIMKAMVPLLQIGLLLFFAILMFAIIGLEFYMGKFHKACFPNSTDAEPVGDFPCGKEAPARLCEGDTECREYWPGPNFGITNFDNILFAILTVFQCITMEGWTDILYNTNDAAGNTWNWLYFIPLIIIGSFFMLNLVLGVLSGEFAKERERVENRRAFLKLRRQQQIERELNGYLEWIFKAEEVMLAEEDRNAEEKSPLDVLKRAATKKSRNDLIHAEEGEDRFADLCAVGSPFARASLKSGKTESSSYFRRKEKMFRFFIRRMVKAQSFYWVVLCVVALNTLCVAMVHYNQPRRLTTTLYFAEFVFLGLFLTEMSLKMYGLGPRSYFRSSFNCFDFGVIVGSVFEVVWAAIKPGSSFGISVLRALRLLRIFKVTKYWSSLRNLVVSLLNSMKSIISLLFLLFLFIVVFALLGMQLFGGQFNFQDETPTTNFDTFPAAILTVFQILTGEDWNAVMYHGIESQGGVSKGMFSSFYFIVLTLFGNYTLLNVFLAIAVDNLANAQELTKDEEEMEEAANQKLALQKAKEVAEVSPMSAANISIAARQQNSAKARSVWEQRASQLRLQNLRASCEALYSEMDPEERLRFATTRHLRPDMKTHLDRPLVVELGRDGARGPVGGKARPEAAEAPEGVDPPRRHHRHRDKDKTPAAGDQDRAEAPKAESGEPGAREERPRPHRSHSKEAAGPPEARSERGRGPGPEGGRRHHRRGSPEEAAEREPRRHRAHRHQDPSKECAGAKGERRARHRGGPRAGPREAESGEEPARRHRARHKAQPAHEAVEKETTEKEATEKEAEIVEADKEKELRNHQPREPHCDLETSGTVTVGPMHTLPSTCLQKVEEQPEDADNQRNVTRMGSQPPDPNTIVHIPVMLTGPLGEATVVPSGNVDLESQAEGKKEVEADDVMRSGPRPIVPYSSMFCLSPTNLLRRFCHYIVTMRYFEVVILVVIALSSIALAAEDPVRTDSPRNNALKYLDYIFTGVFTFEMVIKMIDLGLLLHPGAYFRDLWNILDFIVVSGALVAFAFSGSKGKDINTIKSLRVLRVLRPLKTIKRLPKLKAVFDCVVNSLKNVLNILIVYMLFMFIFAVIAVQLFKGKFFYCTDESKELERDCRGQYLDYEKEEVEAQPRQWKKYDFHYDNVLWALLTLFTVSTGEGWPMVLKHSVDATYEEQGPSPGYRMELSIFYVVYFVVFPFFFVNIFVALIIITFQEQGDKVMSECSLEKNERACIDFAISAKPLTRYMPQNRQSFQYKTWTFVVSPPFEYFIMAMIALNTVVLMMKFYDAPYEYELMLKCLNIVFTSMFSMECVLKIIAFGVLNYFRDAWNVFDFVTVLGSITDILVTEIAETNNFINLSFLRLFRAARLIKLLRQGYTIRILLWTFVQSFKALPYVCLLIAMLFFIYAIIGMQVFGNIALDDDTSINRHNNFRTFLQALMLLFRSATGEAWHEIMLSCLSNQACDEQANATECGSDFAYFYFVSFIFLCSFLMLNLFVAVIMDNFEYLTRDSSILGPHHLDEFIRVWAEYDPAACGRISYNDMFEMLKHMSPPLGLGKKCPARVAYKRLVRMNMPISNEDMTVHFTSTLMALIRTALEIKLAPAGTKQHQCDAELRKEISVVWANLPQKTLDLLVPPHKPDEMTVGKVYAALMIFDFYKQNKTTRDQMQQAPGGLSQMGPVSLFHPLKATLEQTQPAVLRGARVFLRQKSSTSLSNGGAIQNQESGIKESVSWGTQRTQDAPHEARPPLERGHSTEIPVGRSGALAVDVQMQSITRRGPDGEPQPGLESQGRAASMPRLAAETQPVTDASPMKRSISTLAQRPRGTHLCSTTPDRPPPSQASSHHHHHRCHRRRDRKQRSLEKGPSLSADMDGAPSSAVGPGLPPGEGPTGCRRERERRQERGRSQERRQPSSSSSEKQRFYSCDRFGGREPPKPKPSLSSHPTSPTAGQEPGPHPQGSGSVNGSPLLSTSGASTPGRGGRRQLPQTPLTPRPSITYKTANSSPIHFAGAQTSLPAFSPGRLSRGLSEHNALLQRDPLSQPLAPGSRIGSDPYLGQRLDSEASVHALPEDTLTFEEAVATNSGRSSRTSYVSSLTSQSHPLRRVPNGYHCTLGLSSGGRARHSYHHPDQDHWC
Assay Procedure: disruptors of CaV2.2 binding to Mint1 – biochemical, HTRF (AID 2073)
Study Conditions: HTRF protein-protein interaction, Mint1-CaV2.2; at 20 µM; active compounds read high
The whole screen tested about 290,000 compounds, of which about 570 (0.2%) were called active. Another 1% or so got no clear call; they are omitted. For the sample, actives were picked, then their nearest neighbours and some compounds at random.

{"Molecule": "CC1=C(C(=O)O)N2C(=O)[C@@H](NC(=O)[C@H](N)c3ccccc3)[C@H]2SC1", "inhibition / %": -20.5}
{"Molecule": "CCc1nn2c(=O)cc(COc3ccc(/C=C4\\C(=N)N5N=C(C)SC5=NC4=O)cc3)nc2s1", "inhibition / %": 60}
{"Molecule": "Cc1ccc(C(=O)NCCc2nnc3ccc(NCc4ccc5c(c4)OCO5)nn23)cc1", "inhibition / %": -1.4}
{"Molecule": "COc1ccc(N2C(=O)N(Cc3cccc(F)c3)c3ccccc3S2(=O)=O)cc1", "inhibition / %": 55.6}
{"Molecule": "CCc1nn2c(=O)cc(COc3ccc(/C=C4\\C(=N)N5N=C(CC(C)C)SC5=NC4=O)cc3)nc2s1", "inhibition / %": 24.6}
{"Molecule": "COc1ccc(NC(=O)c2cc3c(CO)cnc(C)c3oc2=Nc2cccc(F)c2)c(OC)c1", "inhibition / %": 11.2}
{"Molecule": "COc1ccc(/C=C2\\SC(=O)N(CCC(=O)Nc3ccc(S(=O)(=O)Nc4nccs4)cc3)C2=O)cc1", "inhibition / %": 25.3}
{"Molecule": "CCC1Oc2ccc(C)cc2N(CC(=O)N(Cc2ccncc2)Cc2ccco2)C1=O (stereo not drawn)", "inhibition / %": 10.2}
{"Molecule": "O=C(Nc1ccc(NC(=O)c2sc3ccccc3c2Cl)cc1)c1ccco1", "inhibition / %": 60.5}
{"Molecule": "Cc1ccccc1OCC(=O)N/N=C/c1ccc([N+](=O)[O-])o1", "inhibition / %": 6.4}
{"Molecule": "Cc1c(CCC(=O)O)c(=O)oc2cc(OCc3cccc(F)c3)ccc12", "inhibition / %": 16.2}
{"Molecule": "O=C(Nc1ccccc1)c1ccc2nc(-c3ccco3)c(-c3ccco3)nc2c1", "inhibition / %": 57.1}
{"Molecule": "COc1ccc(N2C(=O)N(Cc3ccc(C)cc3)c3ccccc3S2(=O)=O)cc1", "inhibition / %": 5.3}
{"Molecule": "CCOc1ccccc1N1CSC2=C(C#N)C(c3c(OC)ccc4ccccc34)CC(=O)N2C1 (stereo not drawn)", "inhibition / %": 72.9}
{"Molecule": "COc1ccc(/C=C2/SC(=O)N(CCC(=O)Nc3ccc(S(=O)(=O)Nc4nccs4)cc3)C2=O)cc1", "inhibition / %": 53}
{"Molecule": "O=S1(=O)CCC(n2nccc2-c2ccccc2)C1 (stereo not drawn)", "inhibition / %": -2.9}
{"Molecule": "O=C(Nc1cccc(NC(=O)c2sc3ccccc3c2Cl)c1)c1ccco1", "inhibition / %": 12.7}
{"Molecule": "CCc1ccc(NC(=O)Cn2nnc(C(=O)NCc3cccs3)c2N)cc1", "inhibition / %": 26.5}
{"Molecule": "CCC1Oc2ccc(C)cc2N(CC(=O)N(Cc2cccnc2)Cc2ccc(C)o2)C1=O (stereo not drawn)", "inhibition / %": 52.5}
{"Molecule": "O=C(CCN1C(=O)S/C(=C\\c2ccccc2)C1=O)Nc1ccc(S(=O)(=O)Nc2nccs2)cc1", "inhibition / %": -6.5}
{"Molecule": "Cc1ccc(OCC(=O)N/N=C/C=C/c2ccco2)cc1C", "inhibition / %": 55.3}
{"Molecule": "Cc1ccc(OCC(=O)N/N=C/C=C/c2ccco2)cc1", "inhibition / %": 53.6}
{"Molecule": "O=C(c1ccccc1)c1ccc2nc(-c3ccco3)c(-c3ccco3)nc2c1", "inhibition / %": 76.5}
{"Molecule": "Cc1cccc(OCC(=O)N/N=C/C=C/c2ccco2)c1", "inhibition / %": 59.6}
{"Molecule": "COc1ccc(OC)c(C2CC(=O)N3CN(c4cccc(Cl)c4)CSC3=C2C#N)c1 (stereo not drawn)", "inhibition / %": 37.5}
{"Molecule": "O=C(NCCCN1CCOCC1)c1sc2cc(Cl)ccc2c1Cl", "inhibition / %": -10.3}
{"Molecule": "CCS(=O)(=O)N1CCCC(C(=O)N2CCc3ccccc3C2)C1 (stereo not drawn)", "inhibition / %": 0}
{"Molecule": "O=C(COc1ccccc1[N+](=O)[O-])N/N=C/C=C/c1ccco1", "inhibition / %": 4.5}
{"Molecule": "Cc1ccc(-n2ncc3c2CCCC3NC(=O)CCc2c(C)noc2C)cc1C (stereo not drawn)", "inhibition / %": 16.6}
{"Molecule": "N#Cc1c(N)sc(=S)c2c1CCN(Cc1ccccc1)C2", "inhibition / %": 52.4}
{"Molecule": "COc1ccc(N2C(=O)N(Cc3ccccc3F)c3ccccc3S2(=O)=O)cc1", "inhibition / %": -1.5}
{"Molecule": "N#Cc1c(N)sc2c1CCN(CCc1ccccc1)C2", "inhibition / %": 3.3}
{"Molecule": "Cc1ccccc1NC(=S)NCc1cccs1", "inhibition / %": 5.6}
{"Molecule": "CN(C(=O)CC1C(=O)NCCN1Cc1ccccc1F)C1CCOCC1 (stereo not drawn)", "inhibition / %": 16.3}
{"Molecule": "O=C(NCCCN1CCOCC1)c1sc2cc(F)ccc2c1Cl", "inhibition / %": -0.7}
{"Molecule": "N#Cc1c(N2CCCCC2)nc(N2CCCCC2)c2c1CCN(Cc1ccccc1)C2", "inhibition / %": 16.2}
{"Molecule": "COc1cccc(C2CC(=O)N3CN(c4ccccc4F)CSC3=C2C#N)c1 (stereo not drawn)", "inhibition / %": 75.5}
{"Molecule": "COc1ccc(N2CSC3=C(C#N)C(c4cc(OC)ccc4OC)CC(=O)N3C2)c(OC)c1 (stereo not drawn)", "inhibition / %": 69.2}
{"Molecule": "Cc1ccc(C(=O)NCCSc2ccccc2)cc1S(=O)(=O)Nc1ccccc1", "inhibition / %": -1.8}
{"Molecule": "COc1ccc(OC)c(C2CC(=O)N3CN(c4ccccc4F)CSC3=C2C#N)c1 (stereo not drawn)", "inhibition / %": 29.3}
{"Molecule": "COc1ccccc1OCC(=O)N/N=C/C=C/c1ccc([N+](=O)[O-])o1", "inhibition / %": 54.5}
{"Molecule": "O=c1oc2c(CN3CCN(CCO)CC3)c(O)ccc2cc1-c1ccccn1", "inhibition / %": 30.4}
{"Molecule": "CC(C)(C)SCCNC(=O)CN1C(=O)c2cccc3cccc1c23", "inhibition / %": 35.7}

---

Measured On: Voltage-dependent N-type calcium channel subunit alpha-1B (Homo sapiens)
Assay Procedure: disruptors of CaV2.2 binding to Mint1 – biochemical, HTRF (AID 2073)
Study Conditions: HTRF protein-protein interaction, Mint1-CaV2.2; at 20 µM; active compounds read high
Hit rate of the full screen: of about 290,000 compounds, about 570 (0.2%) were called active. Inconclusive results (about 1%) are left out. The sample holds actives, similar compounds and a random draw of the others, so the mix is not that of the screen.
// not satisfied strictly below 20% in inhibition; satisfied otherwise

{"Compound": "Cc1cc([N+](=O)[O-])c2c(c1C)C1C=CCC1C(c1ccccn1)N2 (centres undefined)", "Classification": "satisfied"}
{"Compound": "C/C(CC(=O)Nc1ccc2c(c1)OCCO2)=N\\NC(=O)COc1ccccc1", "Classification": "not satisfied"}
{"Compound": "O=C(OCc1cc(=O)n2c(n1)sc1ccccc12)c1ccc(O)cc1O", "Classification": "satisfied"}
{"Compound": "CCOC(=O)c1ccc2c(c1)C1C=CCC1C(C(=O)O)N2 (centres undefined)", "Classification": "satisfied"}
{"Compound": "COc1ccc(/C=C2\\SC(=S)N(CCC(=O)NCCCN3CCOCC3)C2=O)cc1", "Classification": "not satisfied"}
{"Compound": "COC(c1ccccc1)c1nnc(CCC(=O)NCc2ccc3ncccc3c2)o1 (centres undefined)", "Classification": "satisfied"}
{"Compound": "CCOc1cc(C(=O)O)cc(Cl)c1OC", "Classification": "not satisfied"}
{"Compound": "CN(C)C(=O)CCC(=O)N1CCCC(N2CCN(c3cccc(C(F)(F)F)c3)CC2)C1 (centres undefined)", "Classification": "not satisfied"}
{"Compound": "COc1ccc(C(=O)/C=C/C(=O)N(CC(=O)NC2CCCCC2)Cc2ccc(F)cc2)c(O)c1", "Classification": "satisfied"}
{"Compound": "CC(C)CNC(=O)c1ccccc1Oc1ccccc1", "Classification": "not satisfied"}
{"Compound": "CCC1(C)Cc2nc3sc(C(=O)O)c(N)c3cc2CO1 (centres undefined)", "Classification": "satisfied"}
{"Compound": "CC1(C)Cc2nc3sc(C(=O)NCCCO)c(N)c3cc2CS1", "Classification": "satisfied"}
{"Compound": "CC1(C)Cc2c(c(N3CCCC3)nc3sc4c(N5CCN(CCO)CC5)ncnc4c23)CO1", "Classification": "not satisfied"}
{"Compound": "Cc1cc(-c2cc(C(=O)O)c3ccccc3n2)c(C)s1", "Classification": "not satisfied"}
{"Compound": "OCCN(CCO)c1ncnc2c1sc1nc(N3CCOCC3)c3c(c12)CCCC3", "Classification": "not satisfied"}
{"Compound": "CCCc1[nH]c(=O)c(C#N)c2c1COC(C)(C)C2", "Classification": "not satisfied"}
{"Compound": "CCCSCCCNC(=O)c1cc2c(s1)CS(=O)(=O)C2", "Classification": "not satisfied"}
{"Compound": "O=C(OCc1cc(=O)n2c(n1)sc1ccccc12)c1ccc(O)cc1", "Classification": "satisfied"}
{"Compound": "Cc1ccc(CSc2nnc(SCC(=O)N/N=C/c3c[nH]c4ccccc34)s2)cc1", "Classification": "satisfied"}
{"Compound": "O=C1C(Cc2ccccc2)NC(=S)N1Cc1ccccc1 (centres undefined)", "Classification": "not satisfied"}
{"Compound": "Cc1ccc2[nH]c(=O)c(CNC(C)C)cc2c1", "Classification": "not satisfied"}
{"Compound": "CC1(C)Cc2c(c(-c3ccco3)nc3sc4c(NCCCO)ncnc4c23)CO1", "Classification": "not satisfied"}
{"Compound": "COCc1c(C(=O)OCC(=O)NCCN2C(=O)CSC2=O)oc2ccccc12", "Classification": "not satisfied"}
{"Compound": "Cc1ccc(CSc2nnc(SCC(=O)N/N=C/C=C/c3ccco3)s2)cc1", "Classification": "satisfied"}
{"Compound": "OCCN1CCN(c2ncnc3c2sc2nc(N4CCOCC4)c4c(c23)CCC4)CC1", "Classification": "not satisfied"}
{"Compound": "O=C(OC1CCCCC1)c1ccc2c(c1)C1C=CCC1C(C(=O)O)N2 (centres undefined)", "Classification": "satisfied"}
{"Compound": "O=C(CSc1nnc(SCc2ccccc2)s1)N/N=C/C=C/c1ccco1", "Classification": "satisfied"}
{"Compound": "O=C(O)c1ccc(Cl)c2c1C1C=CCC1C(c1ccccn1)N2 (centres undefined)", "Classification": "satisfied"}
{"Compound": "COc1ccc(C(=O)/C=C/C(=O)N(CC(=O)NC2CCCCC2)Cc2ccccc2)c(O)c1", "Classification": "satisfied"}
{"Compound": "CN(N)c1nc(-c2ccccc2)cc(-c2ccccc2)n1", "Classification": "not satisfied"}
{"Compound": "COC(=O)C1=C(C)NC(C)=C(C(=O)OC)C1c1cc2cc(C)ccc2[nH]c1=O", "Classification": "not satisfied"}
{"Compound": "O=C(CSc1nnc(SCc2ccccc2)s1)N/N=C/c1c[nH]c2ccccc12", "Classification": "satisfied"}
{"Compound": "Cc1cc(N2CCC(C(=O)NC3CCCCC3)CC2)nc(-c2ccccc2)n1", "Classification": "not satisfied"}
{"Compound": "CC(C)c1ccc(C2NC(=S)NC3=C2C(=O)CC(C)(C)C3)cc1 (centres undefined)", "Classification": "not satisfied"}
{"Compound": "COc1ccc(C2=CC(c3c(C)nn(-c4ccccc4)c3Cl)n3nnnc3N2)cc1OC (centres undefined)", "Classification": "satisfied"}
{"Compound": "Cc1ccc2c(c1)C1C=CCC1C(C(=O)O)N2 (centres undefined)", "Classification": "satisfied"}
{"Compound": "Cc1cc2cc(C(c3nnnn3CC3CCCO3)N3CCCc4ccccc43)c(=O)[nH]c2cc1C (centres undefined)", "Classification": "satisfied"}
{"Compound": "CSc1nc(N2CCN(CCO)CC2)c2sc3nc(-c4ccco4)c4c(c3c2n1)CCC4", "Classification": "satisfied"}
{"Compound": "CSc1nc(N(CCO)CCO)c2sc3nc(-c4ccco4)c4c(c3c2n1)CCC4", "Classification": "satisfied"}
{"Compound": "COc1ccc(C(=O)/C=C/C(=O)N(CC(=O)NC2CCCCC2)Cc2ccccc2OC)c(O)c1", "Classification": "not satisfied"}
{"Compound": "O=C(NCCN1CCOCC1)/C(=C\\c1ccccc1Cl)NC(=O)c1ccccc1", "Classification": "not satisfied"}
{"Compound": "O=C1CNC(=O)/C1=C/c1ccccc1", "Classification": "not satisfied"}
{"Compound": "CCOc1ccc(C(=O)NCC(=O)OCC(=O)c2ccc3c(c2)-c2ccccc2C3)cc1", "Classification": "not satisfied"}
{"Compound": "CN1CCN(C(CC(=O)Nc2cccc(O)c2)C(=O)O)CC1 (centres undefined)", "Classification": "not satisfied"}

These measurements were taken from PubChem BioAssay AID2073.
